- Tested on: CD8F1 mice, subcutaneous mammary adenocarcinoma, T/C%
- assay explanation: NCI In Vivo Anticancer Drug Screen. Data for tumor model Mammary Adenocarcinoma CD8F1 (subcutaneous) in CD8F1
- test context: endpoint: median tumor weight change; dose: 250.0 mg/kg/injection; schedule: Q01DX001 (ip); vehicle: saline with Tween-80; higher = larger tumour
Inconclusive results are not listed.
readout: T/C

Nc1nc(-c2ccccc2)c(Br)c(=O)[nH]1 ... 96 % of control

Below is a list of compounds. For each, state its recorded T/C.
1. Cc1ccc(N)c(N)c1
2. C1OCN2CSCC12 (configuration not stated)

1: 48 % of control; 2: 71 % of control

Below is a list of compounds. For each, state its recorded T/C.
1. O=c1c(O)c(-c2cc(O)c(O)c(O)c2)oc2cc(O)cc(O)c12
2. [O-][n+]1c(CN2CCCCC2)nc2cccc3c2c1-c1ccccc1-3
3. CCCCCCCCCCCCCC#CC(=O)O
4. CCOC(=O)c1cn(C)c2c1C(O)=C(C(=O)OC)CC(=O)N2

1: 46 % of control; 2: 104 % of control; 3: 72 % of control; 4: 97 % of control

---

- Tested on: CD8F1 mice, subcutaneous mammary adenocarcinoma, T/C%
- assay explanation: NCI In Vivo Anticancer Drug Screen. Data for tumor model Mammary Adenocarcinoma CD8F1 (subcutaneous) in CD8F1
- test context: endpoint: median tumor weight (est.); dose: 100.0 mg/kg/injection; schedule: Q07DX005 (ip); vehicle: suspension in saline; higher = larger tumour
Records with an inconclusive call do not appear.
Would you mind telling me the reported T/C of each entry?

Below is a list of compounds. For each, state its recorded T/C.
1. CCCCCCCCCCCCCCCCCC(=O)Nc1ccn(C2OC(CO)C(O)C2O)c(=O)n1 (stereo not drawn)
2. CCOC(=O)c1c[nH]c2oc(/C=N/N3CC(CN4CCOCC4)OC3=O)cc2c1=O (stereo not drawn)
3. Nc1nc2nc[nH]c2c(=O)[nH]1
4. NC1=NCN(C2OC(CO)C(O)C2O)C(=O)N1 (stereo not drawn)
5. CC(=O)OCC1OC(n2ccc(N)nc2=O)C(OC(C)=O)C1OC(C)=O (stereo not drawn)

1. 53 % of control
2. 155 % of control
3. 69 % of control
4. 56 % of control
5. 87 % of control

---

- System: CD8F1 mice, subcutaneous mammary adenocarcinoma, T/C%
- assay explanation: NCI In Vivo Anticancer Drug Screen. Data for tumor model Mammary Adenocarcinoma CD8F1 (subcutaneous) in CD8F1
- test context: endpoint: median tumor weight (est.); dose: 200.0 mg/kg/injection; schedule: Q07DX005 (ip); vehicle: saline with Tween-80; higher = larger tumour
Inconclusive results are not listed.
readout: T/C

Solved cases below.
Cn1ccc(=Nc2ccc(NC(=O)c3ccc(N=c4ccn(C)c5ccc([N+](=O)[O-])cc45)cc3[N+](=O)[O-])cc2)cc1 ... 124 % of control
CCCCCCCCCCCCCCCCCCCCCC(=O)Nc1ccn(C2OC(CO)C(O)C2O)c(=O)n1 (configuration not stated) ... 49 % of control
O=C1NC(=O)/C(=C/C=C/c2ccccc2)S1 ... 101 % of control
CC(=O)Nc1ccc(O)c(O)c1 ... 76 % of control
COc1ccc2cc1Oc1ccc(cc1)C[C@H]1c3cc(c(OC)cc3CCN1C)Oc1c(OC)c(OC)cc3c1[C@H](C2)N(C)CC3 ... 64 % of control
CC(=O)Oc1ccc[nH]c1=O ... 102 % of control
C[Si](C)(C)n1nnn(-c2ccccc2)c1=O ... 77 % of control
CN(C)c1nc(N(C)C)nc(N(C)C)n1 ... 44 % of control
Cc1cn(C2CC3[O][Sn]([c]4ccccc4)([c]4ccccc4)[O]CC3O2)c(=O)[nH]c1=O (configuration not stated) ... 73 % of control
COC1=C(OC)C(=O)C(C/C=C(\C)CC/C=C(\C)CC/C=C(\C)CC/C=C(\C)CC/C=C(\C)CC/C=C(\C)CC/C=C(\C)CC/C=C(\C)CC/C=C(\C)CCC=C(C)C)=C(C)C1=O ... 122 % of control

Below is a list of compounds. For each, state its recorded T/C.
1. CN(CO)c1nc(N(C)CO)nc(N(C)CO)n1
2. NC(=S)N/N=C/c1ccc(O)cn1
3. O=C(CO)c1ccc([N+](=O)[O-])cc1
4. O=C[C@@H](CO)O[C@H](C=O)n1cnc2c(=O)[nH]cnc21
5. CS(=O)(=O)c1ncc(Br)cn1
6. O=C1N(Cl)C(=O)C(c2ccc(Cl)cc2)(c2ccc(Cl)cc2)N1Cl
7. O=C(NC1CCCCC1)OCc1c(COC(=O)NC2CCCCC2)c(-c2ccc(Cl)c(Cl)c2)n2c1CCC2

["31 % of control", "60 % of control", "86 % of control", "84 % of control", "311 % of control", "113 % of control", "28 % of control"]
